In this section we review reported LC50 values for a set of compounds.
assay: Toxicity in brine shrimp; assay type: organism-based; conditions: artemia, in vivo
measured_metric: LC50 (µg/mL)

CCCCCCCCCCCC[C@H](O)[C@H]1CC[C@H]([C@H](O)CC[C@@H](O)CCCCCCCCC[C@@H](O)CC2=C[C@H](C)OC2=O)O1
0.13
CCCCCCCCCCCC[C@H](O)[C@H]1CC[C@H]([C@H](O)CC[C@H](O)CCCCCCCCC[C@@H](O)CC2=C[C@H](C)OC2=O)O1
0.31
